# targetOfAssay: Plasmin (Homo sapiens)
# Sequence (P00747 581-810 limits assumed, species assumed): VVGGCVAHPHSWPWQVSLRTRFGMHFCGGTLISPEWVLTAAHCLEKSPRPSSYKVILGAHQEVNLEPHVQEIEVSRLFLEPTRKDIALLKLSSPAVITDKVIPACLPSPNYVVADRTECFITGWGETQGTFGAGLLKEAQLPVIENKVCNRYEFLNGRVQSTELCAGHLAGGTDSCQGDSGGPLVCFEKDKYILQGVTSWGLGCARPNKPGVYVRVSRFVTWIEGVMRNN
# Sequence (P00747 97-580 partner limits assumed, species assumed): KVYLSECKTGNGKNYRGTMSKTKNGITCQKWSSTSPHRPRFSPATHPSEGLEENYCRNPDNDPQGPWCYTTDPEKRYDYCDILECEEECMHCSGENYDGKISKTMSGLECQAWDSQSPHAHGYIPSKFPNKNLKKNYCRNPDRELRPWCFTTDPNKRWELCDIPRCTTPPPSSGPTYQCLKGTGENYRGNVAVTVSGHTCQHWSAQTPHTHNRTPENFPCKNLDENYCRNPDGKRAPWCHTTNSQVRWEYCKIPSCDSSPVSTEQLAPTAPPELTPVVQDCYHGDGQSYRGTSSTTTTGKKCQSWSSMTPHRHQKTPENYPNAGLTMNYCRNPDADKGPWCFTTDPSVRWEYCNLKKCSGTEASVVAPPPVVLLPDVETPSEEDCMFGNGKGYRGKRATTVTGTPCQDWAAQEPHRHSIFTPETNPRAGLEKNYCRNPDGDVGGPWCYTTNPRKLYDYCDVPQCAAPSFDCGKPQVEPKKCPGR
# testSummary: Plasmin inhibition assay (thioester substrate)
# Type: biochemical
# conditionContext: plasmin 0.004 units/mL; read-out: Plasmin (Serine Protease Inhibitory Data, IC50)
resultType: IC50 (nM)

N=C(N)c1nc2ccc(OC(=O)c3ccco3)cc2s1 : 2

1 = N=C(N)c1cc2ccc(OC(=O)c3cccs3)cc2s1
2 = N=C(N)c1nc2ccc(OC(=O)c3ccoc3)cc2s1
3 = N=C(N)c1cc2cc(OC(=O)c3ccco3)ccc2o1
4 = N=C(N)c1cc2ccc(OC(=O)c3ccsc3)cc2s1
5 = N=C(N)c1cc2cc(OC(=O)c3ccsc3)ccc2o1
Order these by IC50, descending, and give the full ranking. Ranked list of labels, please, in the requested order.
5, 3, 2, 4, 1
(5: 546 nM, 3: 23 nM, 2: 15 nM, 4: 9 nM, 1: 4.1 nM)

I = N=C(N)c1nc2ccc(OC(=O)c3ccc(Cl)s3)cc2s1
II = N=C(N)c1cc2ccc(OC(=O)c3ccccc3)cc2s1
Between the two listed entries I and II , which has its IC50 at the higher number? Write the label of whichever entry you select.
II

a = N=C(N)c1cc2ccc(OC(=O)c3ccoc3)cc2s1
b = N=C(N)c1cc2cc(OC(=O)c3cccs3)ccc2o1
When the recorded IC50 values are compared, which is smaller: that of a or that of b ? Your choice should be expressed through its label.
a
(a: 1 nM, b: 116 nM)

These data points were gathered from patent US6653340B1.
